Tested on: M. tuberculosis H37Rv growth inhibition, 7H9 media
assay-remarks: M. tuberculosis growth inhibition, HTS (AID 449762);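 note: bacterial growth assessed after seven days of incubation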
protocol-conditions: measured here: IC90 growth inhibition
Results filed as inconclusive are left out.
result-type: IC90

>  <molecule>
CCc1ccc(N=CC23c4ccccc4C(c4ccccc42)C2C(=O)N(c4ccc(OC)cc4)C(=O)C23)cc1 (stereo not drawn)

>  <measured-on>
M. tuberculosis H37Rv growth inhibition, 7H9 media

>  <endpoint-result>
> 100 µM

$$$$
>  <molecule>
CCOC(=O)N1CCN=C1SCc1ccc(C(F)(F)F)cc1

>  <measured-on>
M. tuberculosis H37Rv growth inhibition, 7H9 media

>  <endpoint-result>
> 100 µM

$$$$
>  <molecule>
CCOC(=O)Cn1c(-c2ccccc2)ccc(C#N)c1=O

>  <measured-on>
M. tuberculosis H37Rv growth inhibition, 7H9 media

>  <endpoint-result>
> 100 µM

$$$$

Sourced from PubChem BioAssay AID449762
